assay: Pharmacokinetic experiment on rats; format: in vivo, SD rats; conditions: male, Sprague-Dawley, rat, plasma; Intravenous Injection into Rats (1 mg/kg)
We begin with a simple list: items and their reported clearance.

>  <compound>
CC[C@H](C)c1cccc([C@@H](C)C2CC2)c1O [Compound 28]

>  <clearance [mL/min/kg]>
115

$$$$
>  <compound>
CC[C@@H](C)c1cccc([C@@H](C)C2CC2)c1O [Compound 29]

>  <clearance [mL/min/kg]>
145

$$$$
>  <compound>
CC(C)c1cccc(C(C)C)c1O [Propofol, reference compound]

>  <clearance [mL/min/kg]>
204

$$$$
>  <compound>
CC(c1cccc(C(C)C2CC2)c1O)C1CC1 (centres unmarked) [Compound 13, 2,6-bis(1-cyclopropylethyl)phenol]

>  <clearance [mL/min/kg]>
87.5

$$$$
>  <compound>
CC(C)c1cccc([C@H](C)C2CC2)c1O [Compound 16]

>  <clearance [mL/min/kg]>
105

$$$$

###

test system: ICR mice; test: Righting reflex experiment on mice with prodrugs; assay type: in vivo; details: mice, intravenous injection, prodrugs
Structures can show the parent of a compound that is named as a salt.
List of Anesthesia maintenance time values.

>  <molecule>
CC(C)c1cccc([C@H](C)C2CC2)c1OCOC(=O)[C@H](Cc1ccccc1)NC(=O)OC(C)(C)C

>  <Anesthesia maintenance time [s]>
1109.2

$$$$
>  <molecule>
CC[C@@H](C)c1cccc([C@H](C)C2CC2)c1OCOP(=O)([O-])[O-].[Na+].[Na+]

>  <Anesthesia maintenance time [s]>
2634.6

$$$$
>  <molecule>
CC(C)c1cccc([C@H](C)C2CC2)c1OP(=O)(O)O

>  <Anesthesia maintenance time [s]>
2204.6

$$$$
>  <molecule>
C[C@@H](c1cccc([C@H](C)C2CC2)c1OCOP(=O)(O)O)C1CC1 [Compound 75, phosphate]

>  <Anesthesia maintenance time [s]>
2070.4

$$$$
>  <molecule>
C[C@H](c1cccc([C@@H](C)C2CC2)c1OCOP(=O)(O)O)C1CC1 [Compound 77, phosphate]

>  <Anesthesia maintenance time [s]>
1859.1

$$$$
>  <molecule>
CC(C)c1cccc([C@H](C)C2CC2)c1OCOC(=O)[C@@H](N)Cc1ccccc1 [Compound 62, trifluoroacetate]

>  <Anesthesia maintenance time [s]>
696.9

$$$$
>  <molecule>
CC(C)c1cccc(C(C)C)c1O [Propofol, reference compound]

>  <Anesthesia maintenance time [s]>
652.5

$$$$
>  <molecule>
CC(C)c1cccc([C@H](C)C2CC2)c1OCOP(=O)(OCOC(=O)C(C)(C)C)OCOC(=O)C(C)(C)C

>  <Anesthesia maintenance time [s]>
1915.5

$$$$

###

System: ICR mice
Assay: Righting reflex experiment on mice with prodrugs
Format: in vivo
Conditions: safety index, LD5/ED95, mice, prodrugs
Method: After adapting to the laboratory environment, the SPF-grade ICR mice were fasted for 12 hours.
Counter-ions that a name gives are not always drawn.

>  <compound>
CC(C)c1cccc([C@H](C)C2CC2)c1OCOC(=O)[C@@H](N)Cc1ccccc1 [Compound 62, trifluoroacetate]

>  <SI>
1.6

$$$$
>  <compound>
CC(C)c1cccc([C@H](C)C2CC2)c1OCOC(=O)[C@H](Cc1ccccc1)NC(=O)OC(C)(C)C [Compound 61]

>  <SI>
3.7

$$$$
>  <compound>
C[C@@H](c1cccc([C@H](C)C2CC2)c1OCOP(=O)(O)O)C1CC1 [Compound 75, phosphate]

>  <SI>
2.3

$$$$
>  <compound>
CC(=O)Oc1ccccc1C(=O)OCOc1c(C(C)C)cccc1[C@H](C)C1CC1 [Compound 38]

>  <SI>
1.3

$$$$
>  <compound>
C[C@H](c1cccc([C@@H](C)C2CC2)c1OCOP(=O)(O)O)C1CC1 [Compound 77, phosphate]

>  <SI>
1.7

$$$$
>  <compound>
CC(C)c1cccc([C@H](C)C2CC2)c1OCOP(=O)([O-])[O-].[Na+].[Na+] [Compound 52]

>  <SI>
3.3

$$$$
>  <compound>
CC(C)c1cccc([C@H](C)C2CC2)c1OCOC(=O)C(NC(=O)OC(C)(C)C)C(C)C (stereo in doubt) [Compound 57]

>  <SI>
1.3

$$$$
>  <compound>
CC(C)c1cccc([C@H](C)C2CC2)c1OCOP(=O)(OCOC(=O)C(C)(C)C)OCOC(=O)C(C)(C)C [Compound 35]

>  <SI>
4.9

$$$$
>  <compound>
CC(C)c1cccc([C@H](C)C2CCC2)c1OCOP(=O)([O-])[O-].[Na+].[Na+] [Compound 74]

>  <SI>
2.5

$$$$
>  <compound>
CC(C)C[C@H](N)C(=O)OCOc1c(C(C)C)cccc1[C@H](C)C1CC1 [Compound 60, trifluoroacetate]

>  <SI>
3.1

$$$$
>  <compound>
CC(C)c1cccc([C@H](C)C2CC2)c1OP(=O)(O)O [Compound 46]

>  <SI>
2.4

$$$$
>  <compound>
CC(C)c1cccc([C@@H](C)C2CC2)c1OCOP(=O)([O-])[O-].[Na+].[Na+] [Compound 65]

>  <SI>
2.9

$$$$
>  <compound>
CC[C@@H](C)c1cccc([C@H](C)C2CC2)c1OCOP(=O)([O-])[O-].[Na+].[Na+] [Compound 78]

>  <SI>
2.9

$$$$
>  <compound>
CC(C)c1cccc([C@H](C)C2CC2)c1OCOC(=O)c1cccnc1 [Compound 51]

>  <SI>
1.2

$$$$
>  <compound>
CC[C@H](C)c1cccc([C@H](C)C2CC2)c1OCOP(=O)([O-])[O-].[Na+].[Na+] [Compound 79]

>  <SI>
2.1

$$$$
>  <compound>
C[C@H](c1cccc([C@H](C)C2CC2)c1OCOP(=O)(O)O)C1CC1 [Compound 76, phosphate]

>  <SI>
2.5

$$$$

###

Recorded measurements of MTD, one per entry
assay: Righting reflex experiment on mice; conditions: both, ICR, mouse, in vivo, intravenous
value_type: MTD (mg/kg)

>  <molecule>
CC(c1cccc(C2CC2)c1O)C1CC1 (stereo not shown) [Compound 5]

>  <value_type>
MTD

>  <unit_text>
mg/kg

>  <recorded_number>
60

$$$$
>  <molecule>
CCC(C)c1cccc(C(C)C2CC2)c1O (stereo not shown) [Compound 4, 2-sec-butyl-6-(1-cyclopropylethyl)phenol]

>  <value_type>
MTD

>  <unit_text>
mg/kg

>  <recorded_number>
25

$$$$
>  <molecule>
CC[C@H](C)c1cccc([C@H](C)C2CC2)c1O [Compound 25]

>  <value_type>
MTD

>  <unit_text>
mg/kg

>  <recorded_number>
10

$$$$
>  <molecule>
CC(C)c1cccc([C@H](C)C2CC2)c1O [Compound 16]

>  <value_type>
MTD

>  <unit_text>
mg/kg

>  <recorded_number>
6

$$$$

###

test: Righting reflex experiment on mice with prodrugs; format: in vivo; conditions: both, ICR, mouse, in vivo; mice, intravenous injection, prodrugs in physiological saline

>  <mol>
CC(C)c1cccc([C@H](C)C2CCC2)c1OCOP(=O)([O-])[O-].[Na+].[Na+]

>  <unit_text>
mg/kg

>  <LD50>
192

$$$$
>  <mol>
CC[C@H](C)c1cccc([C@H](C)C2CC2)c1OCOP(=O)([O-])[O-].[Na+].[Na+]

>  <unit_text>
mg/kg

>  <LD50>
91.8

$$$$
>  <mol>
CC[C@@H](C)c1cccc([C@H](C)C2CC2)c1OCOP(=O)([O-])[O-].[Na+].[Na+]

>  <unit_text>
mg/kg

>  <LD50>
63.7

$$$$
>  <mol>
CC(C)c1cccc([C@H](C)C2CC2)c1OCOP(=O)([O-])[O-].[K+].[K+]

>  <unit_text>
mg/kg

>  <LD50>
72.6

$$$$

###

assay: Righting reflex experiment on mice with prodrugs; type: in vivo; conditions: both, ICR, mouse, in vivo, intravenous; mice, prodrugs
Each entry below carries its reported MTD.

>  <compound>
CC[C@@H](C)c1cccc([C@H](C)C2CC2)c1OCOP(=O)([O-])[O-].[Na+].[Na+] [Compound 78]

>  <MTD>
40 mg/kg

$$$$
>  <compound>
CC[C@H](C)c1cccc([C@H](C)C2CC2)c1OCOP(=O)([O-])[O-].[Na+].[Na+] [Compound 79]

>  <MTD>
60 mg/kg

$$$$
>  <compound>
CC(C)c1cccc([C@H](C)C2CC2)c1OCOP(=O)([O-])[O-].[K+].[K+] [Compound 45]

>  <MTD>
50 mg/kg

$$$$
>  <compound>
CC(C)c1cccc([C@H](C)C2CCC2)c1OCOP(=O)([O-])[O-].[Na+].[Na+] [Compound 74]

>  <MTD>
120 mg/kg

$$$$
